molecular target: GalNAc(b1-3)GlcNAc; assay: glycan array binding signal (z-score within array); higher = stronger binding; details: glycan notation: IUPAC condensed, linker removed
Shown is part of a subset that was picked to be rich in the strongest signals.
Would you mind labelling by glycan array binding signal (z-score)? At or over 0.4 is met, under is not met.

binder: OrysaEULS2 (Oryza sativa) (protein) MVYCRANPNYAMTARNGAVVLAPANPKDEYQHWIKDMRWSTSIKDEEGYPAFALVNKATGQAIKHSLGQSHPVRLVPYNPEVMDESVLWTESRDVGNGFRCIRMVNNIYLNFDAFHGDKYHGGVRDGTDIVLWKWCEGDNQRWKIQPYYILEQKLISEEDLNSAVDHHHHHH
qualitative_label: not met
--
binder: AT5G24760(45) (Arabidopsis thaliana), Q8LEB2 (protein) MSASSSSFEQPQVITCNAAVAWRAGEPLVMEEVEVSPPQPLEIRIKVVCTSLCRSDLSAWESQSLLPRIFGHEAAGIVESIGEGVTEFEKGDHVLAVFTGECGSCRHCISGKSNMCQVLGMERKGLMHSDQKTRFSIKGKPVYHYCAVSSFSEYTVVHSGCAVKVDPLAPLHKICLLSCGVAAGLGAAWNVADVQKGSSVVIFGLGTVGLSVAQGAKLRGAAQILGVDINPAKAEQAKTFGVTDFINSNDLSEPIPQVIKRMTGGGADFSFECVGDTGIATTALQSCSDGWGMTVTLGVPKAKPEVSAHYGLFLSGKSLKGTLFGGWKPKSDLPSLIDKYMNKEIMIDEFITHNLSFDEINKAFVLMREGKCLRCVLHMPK
qualitative_label: met
--
binder: RobpsCRA (Robinia pseudoacacia) (protein) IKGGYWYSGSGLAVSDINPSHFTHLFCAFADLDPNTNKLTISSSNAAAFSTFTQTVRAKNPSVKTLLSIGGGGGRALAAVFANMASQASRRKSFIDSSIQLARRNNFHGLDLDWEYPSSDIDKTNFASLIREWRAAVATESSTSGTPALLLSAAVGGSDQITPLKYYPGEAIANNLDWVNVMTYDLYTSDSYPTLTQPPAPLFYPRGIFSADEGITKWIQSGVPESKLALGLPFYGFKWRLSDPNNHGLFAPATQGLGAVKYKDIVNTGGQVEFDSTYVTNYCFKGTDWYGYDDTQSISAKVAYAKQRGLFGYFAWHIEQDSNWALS
qualitative_label: met
--
binder: pTFF2 (Sus scrofa), P01359 (protein) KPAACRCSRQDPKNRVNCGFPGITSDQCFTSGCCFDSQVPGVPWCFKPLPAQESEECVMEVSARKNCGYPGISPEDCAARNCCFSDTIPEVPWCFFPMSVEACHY
qualitative_label: met
--
binder: AT1G15820(NC) (Arabidopsis thaliana) (protein) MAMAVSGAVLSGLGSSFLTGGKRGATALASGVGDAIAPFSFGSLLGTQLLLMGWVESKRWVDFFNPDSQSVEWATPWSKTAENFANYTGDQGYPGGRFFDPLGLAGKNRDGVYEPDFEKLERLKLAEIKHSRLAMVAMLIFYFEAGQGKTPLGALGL
qualitative_label: not met
